Taken from ChEMBL document CHEMBL1201862.

I'd appreciate it if you could supply GI50 values for the items below.
Test system: HCT-116
METHOD NOTES: NCI tumour cell line growth inhibition, 48 h
Calls of active or inactive are those of the source. Cut-off read from the data, not from the text of the source: active = GI50 up to about 1.1 µM and inactive = higher.

Check out these entries, answers already filled in.
compound=COc1cc2c(OC)c(c1)CCCC1=CC(=O)C=C(CCC2)C1=O tested_on=HCT-116 recorded_measurement="17.1 µM (inactive)"
compound=O=C1C=C(N2CCN(c3ncccn3)CC2)C(=O)c2c(O)ccc(O)c21 tested_on=HCT-116 recorded_measurement="73.1 µM (inactive)"
compound=N=C(N)N/N=C/c1ccc(O)c(C(=O)O)c1 tested_on=HCT-116 recorded_measurement="> 100 µM (inactive)"
compound=Cc1nc2c(=O)[nH]ncc2[nH]1 tested_on=HCT-116 recorded_measurement="> 100 µM (inactive)"
compound=COc1ccc(S(=O)(=O)Nc2ccc(-c3csc(N4C(=O)/C(=C/C=C\c5ccccc5)N=C4c4ccccc4)n3)cc2)cc1Cl tested_on=HCT-116 recorded_measurement="25.7 µM (inactive)"
compound="CCOC(OC1=C(C#N)CCC1)C(C)[Se]c1ccccc1 (stereo unspecified)" tested_on=HCT-116 recorded_measurement="18.8 µM (inactive)"
compound=NS(=O)(=O)c1nnc(NS(=O)(=O)c2ccccc2C(=O)O)s1 tested_on=HCT-116 recorded_measurement="> 100 µM (inactive)"
compound=C=CC(=O)NCNC(=O)C=C tested_on=HCT-116 recorded_measurement="> 100 µM (inactive)"
compound=Cc1[nH]c2ccccc2c1C1=CC(=O)N(c2ccccc2)C1=O tested_on=HCT-116 recorded_measurement="8.75 µM (inactive)"
compound="CCOC(=O)C(Cc1ccccc1)NC(=O)c1ccc(/N=N/N(C)C)cc1 (stereo unspecified)" tested_on=HCT-116 recorded_measurement="> 100 µM (inactive)"

With those in mind, consider the next compound.
Query (compound): CCN(CC)CCNC(=O)c1ccc(C)c(OCc2ccccc2)c1[N+](=O)[O-] ; field requested: GI50
23 µM (inactive)

* * *

Tested on: ACHN
METHOD NOTES: NCI tumour cell line growth inhibition, 48 h
Active and inactive are the calls of the source. Rule as the data show it: active = GI50 up to about 1.1 µM and inactive = higher.
MEASURED METRIC: GI50

Check out these entries, answers already filled in.
compound="CCCCCC(=O)CCCCCCCC(O)CC(=O)OCC (stereo not drawn)" recorded_measurement="> 100 µM (inactive)"
compound=COc1cc(/C=C/C(=O)c2c([O-])on[n+]2-c2ccccc2)ccc1O recorded_measurement="2.32 µM (inactive)"

Query (compound): C[C@]12CCC(=O)C(O)=C1CC[C@@H]1[C@@H]2CC[C@]2(C)C(=O)CC[C@@H]12 [FORMESTANE] ; field requested: GI50
> 100 µM (inactive)

* * *

Test system: SNB-75
METHOD NOTES: NCI tumour cell line growth inhibition, 48 h
Active and inactive are the calls of the source. Rule as the data show it: active = GI50 up to about 1.1 µM and inactive = higher.
I would appreciate it if you answered using one of these outcomes: y (active), n (inactive)

Field: example entries. Status: answers known.
compound=Cn1c(=O)c2[nH]cnc2n(CC(=O)O)c1=O classification=n
compound="CCOC(OC1=C(C#N)CCCC1)C(CC)[Se]c1ccccc1 (stereo not drawn)" classification=n
compound=Cc1ccc(NC(=O)c2cc3ccccc3c(/N=N\c3ccccc3O)c2O)c(C)c1 classification=y
compound=N#CC1=C(C#N)/C(=C(\C#N)C(C#N)C#N)N=C1N classification=n

What is the recorded call for this compound in the test? COC(=O)C1=CN(C2CCCCC2)C2(c3ccccc3)c3ccccc3C(=O)OC(=O)C12 (stereo not drawn)
n

Would you kindly repeat that for O=[N+]([O-])c1ccc(C2Nn3c(nnc3-c3cccc([N+](=O)[O-])c3)S2)cc1 (stereo not drawn) ?
n

Would you kindly repeat that for Cc1ccc(/N=N/c2c(O)ccc3ccccc23)c(C)c1 ?
n

Would you kindly repeat that for CN(C)C(=O)C1CCN(Cc2c[nH]c3ccccc23)CC1 ?
n

Would you kindly repeat that for c1nc(N2CC2)c2cnn(C3CCCCO3)c2n1 (stereo not drawn) ?
n

Would you kindly repeat that for CO/C=C(/C(=O)OC)c1ccccc1COc1cccc(C(F)(F)F)c1 ?
n

* * *

System: CAKI-1
METHOD NOTES: NCI tumour cell line growth inhibition, 48 h
Calls of active or inactive are those of the source. Cut-off read from the data, not from the text of the source: active = GI50 up to about 1.1 µM and inactive = higher.
I would appreciate it if you answered using one of these outcomes: active, inactive

molecule=CC[n+]1c(/C=C/c2ccc(N(CCCl)CCCl)cc2)ccc2cc(Br)ccc21 classification=inactive

What is the recorded call for this molecule in the test? N#CC(NCCc1ccccc1)c1ccccc1 (configuration not stated)
inactive

Would you kindly repeat that for CCOC(=O)/C=C(/C(=O)OCC)n1ccc(=O)n(Cc2cn(CCCCOC(C)=O)nn2)c1=O ?
inactive

Would you kindly repeat that for CN(C)c1ccc(C(=NNC(=O)c2cc3ccccc3[nH]2)c2ccc(N(C)C)cc2)cc1 ?
active

Would you kindly repeat that for Cc1cc(Cl)ccc1NC(=O)C(=O)Cc1ccc([N+](=O)[O-])c([N+](=O)[O-])c1CC(=O)C(=O)Nc1ccc(Cl)cc1C ?
inactive

Would you kindly repeat that for CC(C)C[C@H](NC(=O)CCc1cccc2ccccc12)B(O)O ?
active

Would you kindly repeat that for COC(=O)c1c(O)ccc2c1c1c(n2Cc2ccccc2OC)C(=O)c2ccccc2C1=O ?
inactive

Would you kindly repeat that for O=C1C=CC2=[N+]([O-])C(c3ccccc3)(c3ccccc3)/C(=N\c3ccccc3)C2=C1 ?
inactive

* * *

I'd appreciate it if you could supply GI50 values for the items below.
Tested on: MDA-MB-231
METHOD NOTES: NCI tumour cell line growth inhibition, 48 h
The source made the active and inactive calls. Rule as the data show it: active = GI50 up to about 1.1 µM and inactive = higher.

compound=CNC(=O)OCc1c(COC(=O)NC)c(-c2ccc(Cl)c(Cl)c2)n2c1SCC2 tested_on=MDA-MB-231 measured_metric=GI50 recorded_measurement="10.8 µM (inactive)"
compound=Cc1[nH]c2ccccc2c1C1=CC(=O)N(c2ccccc2)C1=O tested_on=MDA-MB-231 measured_metric=GI50 recorded_measurement="28.2 µM (inactive)"
compound=[O-]/[N+](=N\c1ccccc1CO)c1ccccc1CO tested_on=MDA-MB-231 measured_metric=GI50 recorded_measurement="> 100 µM (inactive)"

# map each compound to its GI50
1. O=C(c1cccs1)c1nccc2c1cnc1ccccc12
2. C[C@@H](NC(=O)c1ccc(CNC(=O)/C=C/c2cccc(Oc3ccccc3)c2)cc1)c1ccccc1
3. CO/C=C(/C(=O)OC)c1ccccc1COc1cccc(C(F)(F)F)c1
4. OCCN=C1c2ccccc2C2C(c3ccccc31)C1c3ccccc3C(=NCCO)c3ccccc3C21 (stereo unspecified)
5. COc1ccc2c(c1)CCN=C2Cc1cc(OC)c(OC)cc1CCCl
6. CC(CO)(CO)N1C(=O)C2C3c4ccccc4C(c4ccccc43)C2C1=O (stereo unspecified)
7. CN(C)c1ccc(/C=N/NC(=O)c2cnc3ccccc3c2)cc1
8. Cc1c2cnccc2nc2[nH]c3ccncc3c12

1. > 100 µM (inactive)
2. > 100 µM (inactive)
3. 7.89 µM (inactive)
4. 13.8 µM (inactive)
5. 32.1 µM (inactive)
6. 45.8 µM (inactive)
7. 37.8 µM (inactive)
8. 55 µM (inactive)

# map each compound to its GI50
1. COc1ccc2[nH]cc(CCNC(=O)[C@H](Cc3ccc(O)cc3)NC(=O)[C@@H](NCC(F)(F)F)C(C)C)c2c1
2. Clc1cc(-c2ccccc2)nc2ccccc12
3. CCc1n[nH]c(=O)n1CCCCCCCCCCCCn1c(CC)n[nH]c1=O
4. CC(C)/C=N\N1C(N)=C(C#N)C(C#N)(C#N)C1C(C)C (stereo unspecified)
5. NCCCCNCCCN1CCOC1=O
6. NCCc1c[nH]c2ccc(OC(=O)C(=O)O)cc12

1. > 100 µM (inactive)
2. 35.4 µM (inactive)
3. 28.1 µM (inactive)
4. 29.9 µM (inactive)
5. > 100 µM (inactive)
6. > 100 µM (inactive)

* * *

System: K562
METHOD NOTES: NCI tumour cell line growth inhibition, 48 h
Active and inactive are the calls of the source. No stated cut-off is given here; in the data, active = GI50 up to about 1.1 µM and inactive = higher.
MEASURED METRIC: GI50

Check out these entries, answers already filled in.
compound="O=C1C2c3[nH]c4ccccc4c3C3CCC(c4ccccc4)CC3C2C(=O)N1c1ccccc1 (stereo not given)" recorded_measurement="55.1 µM (inactive)"
compound=CC(C)c1ccc2c(c1)/C(=C1/Nc3ccccc3C1=O)C(=O)N2 recorded_measurement="33.7 µM (inactive)"

# map each compound to its GI50
1. O=[N+]([O-])c1ccc(N/N=C/c2ccc(OCCCCCCCCCCCO)cc2)c([N+](=O)[O-])c1
2. COc1cc2c(cc1OC)C(C#N)N(C(=O)c1ccccc1)C=C2OC(=O)c1ccccc1 (stereo not given)
3. N#CC1(C#N)C(=O)c2ccncc2C1=O
4. O=C(O)CCC(=O)C(=O)O
5. O=C(/C=C/C(Cl)(Cl)Cl)Nc1ccc(Cl)cc1
6. COc1ccc2[nH]cc(CCNC(=O)[C@H](Cc3ccc(O)cc3)NC(=O)[C@@H](NCC(F)(F)F)C(C)C)c2c1
7. O=C1C=CC2=[N+]([O-])C(c3ccccc3)(c3ccccc3)/C(=N\c3ccccc3)C2=C1
8. O=C(O)Cc1cccc2c1Oc1ccccc1S2

1: 1.15 µM (inactive); 2: 32.7 µM (inactive); 3: > 100 µM (inactive); 4: > 100 µM (inactive); 5: 1.62 µM (inactive); 6: 71.6 µM (inactive); 7: 2.1 µM (inactive); 8: > 100 µM (inactive)

# map each compound to its GI50
1. CC(C)(C)C[P+](C)(C)c1ccccc1
2. CN(C)C(=O)C1CCN(Cc2c[nH]c3ccccc23)CC1
3. CC(NS(C)(=O)=O)c1ccccc1 (stereo not given)
4. O=C1c2ccccc2CC12Cc1ccccc1C2
5. O=S(=O)(O)c1ccc(/N=N\c2ccc(/N=N/c3ccc(/C=C/c4ccc(/N=[N+](\[O-])c5ccc(/C=C/c6ccc(/N=N/c7ccc(/N=N/c8ccc(S(=O)(=O)O)cc8)c8ccccc78)cc6S(=O)(=O)O)c(S(=O)(=O)O)c5)cc4S(=O)(=O)O)c(S(=O)(=O)O)c3)c3ccccc23)cc1

1: 34.4 µM (inactive); 2: > 100 µM (inactive); 3: > 100 µM (inactive); 4: 34.8 µM (inactive); 5: > 100 µM (inactive)
